Target: T1, human C1s (human, UniProt P09871 16-688)
T1 construct: Analyte in the Biacore assays; also called hC1s; serum-derived human C1s (CompTech)
T1 sequence: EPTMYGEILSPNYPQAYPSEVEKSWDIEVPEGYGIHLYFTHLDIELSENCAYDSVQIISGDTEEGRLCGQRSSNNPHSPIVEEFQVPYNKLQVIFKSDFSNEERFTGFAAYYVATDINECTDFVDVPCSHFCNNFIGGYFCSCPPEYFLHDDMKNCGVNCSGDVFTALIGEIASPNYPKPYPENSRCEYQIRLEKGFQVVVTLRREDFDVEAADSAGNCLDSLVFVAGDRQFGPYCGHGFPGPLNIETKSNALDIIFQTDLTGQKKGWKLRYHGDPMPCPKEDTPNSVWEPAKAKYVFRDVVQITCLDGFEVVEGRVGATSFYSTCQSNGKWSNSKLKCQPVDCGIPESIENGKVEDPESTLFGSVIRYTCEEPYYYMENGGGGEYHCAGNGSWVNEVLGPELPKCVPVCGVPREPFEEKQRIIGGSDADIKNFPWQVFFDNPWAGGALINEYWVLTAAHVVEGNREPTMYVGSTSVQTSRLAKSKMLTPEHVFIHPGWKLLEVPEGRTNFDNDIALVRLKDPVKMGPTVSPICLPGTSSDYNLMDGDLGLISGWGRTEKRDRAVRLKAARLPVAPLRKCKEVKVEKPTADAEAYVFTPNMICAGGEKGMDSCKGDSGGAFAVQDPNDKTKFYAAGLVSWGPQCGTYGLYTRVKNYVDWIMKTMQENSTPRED
Assay: SPR (Biacore T200, 37C), Ab captured on protein A/G; pH 5.8, 1.2 mM Ca
assay-metric: koff

I am curious: what koff value has been reported for C1_IPN92H0166-SG4GK/IPN93L0024-SK1 (antibody, human IgG4 S228P, kappa, name in Kabat numbering, V domains shown, Substitutions from IPN009VH2, Kabat numbering; also called IPN92H0166/IPN93L0024) VH: EVMLVESGGGLVKPGGSLRLSCAASGFTFSNYAMSWVRQAPGKGLEWVATISSGGSHTYYEDSVKGRFTISRDNSKDTLYLQMNSLRAEDTALYYCARLFTGHAMDYWGQGTLVTVSS VL: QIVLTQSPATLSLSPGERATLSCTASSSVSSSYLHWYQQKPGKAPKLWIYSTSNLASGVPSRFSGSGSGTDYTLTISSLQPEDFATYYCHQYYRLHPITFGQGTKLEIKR ?
0.00226 s⁻¹

I am curious: what koff value has been reported for C1_IPN92H0147-SG4GK/IPN93L0024-SK1 (antibody, human IgG4 S228P, kappa, name in Kabat numbering, V domains shown, Substitutions from IPN009VH2, Kabat numbering; also called IPN92H0147/IPN93L0024) VH: EVMLVESGGGLVKPGGSLRLSCAASGFTFSNYAMSWVRQAPGKGLEWVATISSGGSHDYYLDSVKGRFTISRDNSKDTLYLQMNSLRAEDTALYYCARLFTGHAMDYWGQGTLVTVSS VL: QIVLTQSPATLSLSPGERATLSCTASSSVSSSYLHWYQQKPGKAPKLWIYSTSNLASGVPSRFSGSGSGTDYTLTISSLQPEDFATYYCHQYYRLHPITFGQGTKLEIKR ?
0.00589 s⁻¹

I am curious: what koff value has been reported for C1_IPN92H0033-SG4GK/IPN93L0072-SK1 (antibody, human IgG4 S228P, kappa, name in Kabat numbering, V domains shown, VL substitutions from IPN009VK3, Kabat numbering; also called IPN92H0033/IPN93L0072) VH: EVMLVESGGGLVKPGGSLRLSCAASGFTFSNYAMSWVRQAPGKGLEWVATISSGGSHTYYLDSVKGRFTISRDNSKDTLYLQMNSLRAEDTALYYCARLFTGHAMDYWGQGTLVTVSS VL: QIVLTQSPATLSLSPGERATLSCTASSSVKSSYLHWYQQKPGKAPKLWIYSTSNLASGVPSRFSGSGSGTDYTLTISSLQPEDFATYYCHQYYRLHPITFGQGTKLEIKR ?
0.00529 s⁻¹

I am curious: what koff value has been reported for C1_IPN92H0253-SG4GK/IPN93L0024-SK1 (antibody, human IgG4 S228P, kappa, name in Kabat numbering, V domains shown, Substitutions from IPN009VH2, Kabat numbering; also called IPN92H0253/IPN93L0024) VH: EVMLVESGGGLVKPGGSLRLSCAASGFTFSNYAMSWVRQAPGKGLEWVATISSGGSHTYYLDSVKGRFTISRDNSKDTLYLQMNSLRAEDTALYYCARLFTGHAMKYWGQGTLVTVSS VL: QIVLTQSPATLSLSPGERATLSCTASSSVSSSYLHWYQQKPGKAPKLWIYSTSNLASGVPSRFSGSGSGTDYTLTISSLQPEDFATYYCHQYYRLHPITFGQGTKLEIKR ?
0.000717 s⁻¹

I am curious: what koff value has been reported for C1_IPN92H0156-SG4GK/IPN93L0024-SK1 (antibody, human IgG4 S228P, kappa, name in Kabat numbering, V domains shown, Substitutions from IPN009VH2, Kabat numbering; also called IPN92H0156/IPN93L0024) VH: EVMLVESGGGLVKPGGSLRLSCAASGFTFSNYAMSWVRQAPGKGLEWVATISSGGSHTKYLDSVKGRFTISRDNSKDTLYLQMNSLRAEDTALYYCARLFTGHAMDYWGQGTLVTVSS VL: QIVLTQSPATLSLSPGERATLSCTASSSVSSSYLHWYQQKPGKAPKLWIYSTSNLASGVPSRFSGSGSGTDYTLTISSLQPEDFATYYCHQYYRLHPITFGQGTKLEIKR ?
0.00948 s⁻¹
